Source listed as paper PMC6811436.

# Assay explanation: clinical
# Applied conditions: human, in vivo, iv, 1500 mg
Measurement name: level at 72 h (µg/mL)
Respond with the bare value in µg/mL.

Reported level at 72 h for CN[C@H]1C(=O)N[C@@H]2Cc3ccc(cc3)Oc3cc4cc(c3O[C@@H]3O[C@H](C(=O)O)[C@@H](O)[C@H](O)[C@H]3NC(=O)CCCCCCCCC(C)C)Oc3ccc(cc3Cl)[C@@H](O)[C@@H]3NC(=O)[C@H](NC(=O)[C@@H]4NC(=O)[C@@H](NC2=O)c2cc(cc(O)c2Cl)Oc2cc1ccc2O)c1ccc(O)c(c1)-c1c(O[C@H]2O[C@H](CO)[C@@H](O)[C@H](O)[C@@H]2O)cc(O)cc1[C@@H](C(=O)NCCCN(C)C)NC3=O [Dalbavancin] : what is it? 120

----------
# Assay explanation: clinical
# Applied conditions: human, in vivo, iv, 1500 mg
Measurement name: level at 2 h (µg/mL)
Respond with the bare value in µg/mL.

Reported level at 2 h for CN[C@H]1C(=O)N[C@@H]2Cc3ccc(cc3)Oc3cc4cc(c3O[C@@H]3O[C@H](C(=O)O)[C@@H](O)[C@H](O)[C@H]3NC(=O)CCCCCCCCC(C)C)Oc3ccc(cc3Cl)[C@@H](O)[C@@H]3NC(=O)[C@H](NC(=O)[C@@H]4NC(=O)[C@@H](NC2=O)c2cc(cc(O)c2Cl)Oc2cc1ccc2O)c1ccc(O)c(c1)-c1c(O[C@H]2O[C@H](CO)[C@@H](O)[C@H](O)[C@@H]2O)cc(O)cc1[C@@H](C(=O)NCCCN(C)C)NC3=O : what is it? 331

----------
# Assay explanation: clinical
# Applied conditions: human, in vivo, iv, 1500 mg
Measurement name: level at 24 h (µg/mL)
Respond with the bare value in µg/mL.

Reported level at 24 h for CN[C@H]1C(=O)N[C@@H]2Cc3ccc(cc3)Oc3cc4cc(c3O[C@@H]3O[C@H](C(=O)O)[C@@H](O)[C@H](O)[C@H]3NC(=O)CCCCCCCCC(C)C)Oc3ccc(cc3Cl)[C@@H](O)[C@@H]3NC(=O)[C@H](NC(=O)[C@@H]4NC(=O)[C@@H](NC2=O)c2cc(cc(O)c2Cl)Oc2cc1ccc2O)c1ccc(O)c(c1)-c1c(O[C@H]2O[C@H](CO)[C@@H](O)[C@H](O)[C@@H]2O)cc(O)cc1[C@@H](C(=O)NCCCN(C)C)NC3=O [Dalbavancin] : what is it? 169

----------
# Assay explanation: clinical
# Applied conditions: human, in vivo, iv, 1500 mg
Measurement name: level at 120 h (µg/mL)
Respond with the bare value in µg/mL.

Reported level at 120 h for CN[C@H]1C(=O)N[C@@H]2Cc3ccc(cc3)Oc3cc4cc(c3O[C@@H]3O[C@H](C(=O)O)[C@@H](O)[C@H](O)[C@H]3NC(=O)CCCCCCCCC(C)C)Oc3ccc(cc3Cl)[C@@H](O)[C@@H]3NC(=O)[C@H](NC(=O)[C@@H]4NC(=O)[C@@H](NC2=O)c2cc(cc(O)c2Cl)Oc2cc1ccc2O)c1ccc(O)c(c1)-c1c(O[C@H]2O[C@H](CO)[C@@H](O)[C@H](O)[C@@H]2O)cc(O)cc1[C@@H](C(=O)NCCCN(C)C)NC3=O [Dalbavancin] : what is it? 94
